# test-system: human recombinant GST-PAK1-KD protein (Homo sapiens)
# Construct: residues #249-545 of human PAK1, UniProtKP/Swiss Q13153; His6 (N); made in house; host or cells: Sf9 insect cells, pAcGP67 baculovirus expression vector
# experiment: GST-PAK1-KD (kinase domain) biochemical assay, microfluidic mobility shift
# condition-label: GST-PAK1-KD Inhibition Assay - Example 65; read-out: PAK1 inhibition Ki
The compounds listed here are annotated with their pKi.
Would you please state pKi, meaning minus log10 of the concentration in mol/L, as a bare number?

COc1cc(CNc2nccc(Nc3cc(C4CC4)[nH]n3)n2)c2cn[nH]c2c1 [II-74] ... 7.87
CN(Cc1ccc2[nH]cnc2c1Cl)c1nccc(Nc2cc(C3COC3)[nH]n2)n1 [II-2] ... 8.15

Then this compound:
Query: So what does the record say about pKi for C[C@H](Nc1nccc(Nc2cc(C3CCC3)[nH]n2)n1)c1ccc2[nH]ccc2c1 [I-114] ?
Reply: 8.17

====

# test-system: human recombinant GST-PAK1-KD protein (Homo sapiens, UniProt Q13153)
# Construct: residues #249-545 of human PAK1, UniProtKP/Swiss Q13153; His6 (N); made in house; host or cells: Sf9 insect cells, pAcGP67 baculovirus expression vector
# Sequence (Q13153 249-545): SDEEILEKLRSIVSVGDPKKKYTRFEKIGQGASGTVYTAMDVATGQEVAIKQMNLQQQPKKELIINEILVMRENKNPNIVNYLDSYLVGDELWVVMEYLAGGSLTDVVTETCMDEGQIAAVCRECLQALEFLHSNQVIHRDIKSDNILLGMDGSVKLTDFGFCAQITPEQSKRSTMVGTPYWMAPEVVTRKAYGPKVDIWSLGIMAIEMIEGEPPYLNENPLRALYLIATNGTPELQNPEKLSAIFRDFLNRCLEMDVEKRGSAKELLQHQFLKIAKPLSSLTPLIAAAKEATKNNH
# experiment: GST-PAK1-KD (kinase domain) biochemical assay, microfluidic mobility shift
# condition-label: Table I, PAK1 Ki class; read-out: Ki
pKi: −log10 of the molar value.
reported-property: pKi

Illustrative cases are given below, each with its answer.
Cc1cc(CNc2nccc(Nc3cc(C4CC4)[nH]n3)n2)cc2nc[nH]c12 ... 6.60 to 7.30
OCCN(Cc1ccc2[nH]cnc2c1)c1nccc(Nc2cc(C3CC3)[nH]n2)n1 ... 6.60 to 7.30
Cc1c[nH]c2ccc(CNc3nccc(Nc4cc(C5CC5)[nH]n4)n3)cc12 ... 6.60 to 7.30
C[C@H](Nc1nccc(Nc2cc(C3CCOC3)[nH]n2)n1)c1ccc2[nH]ccc2c1 (some centres unmarked) ... > 7.30

# next compound below
Query: Value lookup for pKi; key = Clc1cnc(NCc2ccc3[nH]cnc3c2Cl)nc1Nc1cc(C2CC2)[nH]n1
Reply: > 7.30

====

# test-system: human recombinant GST-PAK1-KD protein (Homo sapiens)
# Construct: residues #249-545 of human PAK1, UniProtKP/Swiss Q13153; His6 (N); made in house; host or cells: Sf9 insect cells, pAcGP67 baculovirus expression vector
# experiment: GST-PAK1-KD (kinase domain) biochemical assay, microfluidic mobility shift
# condition-label: Table I, PAK1 Ki class; read-out: Ki
pKi: −log10 of the molar value.
reported-property: pKi

See these solved cases before continuing.
c1cc(Nc2cc(C3CC3)[nH]n2)nc(NCc2ccc3cn[nH]c3c2)n1 ... < 6.00
c1cc(CNc2nccc(Nc3cc(C4CC4)[nH]n3)n2)c2cc[nH]c2c1 ... 6.60 to 7.30
C[C@H](Nc1ncc(Cl)c(Nc2cc(C3CC3)[nH]n2)n1)c1ccc2[nH]ccc2c1 ... 6.00 to 6.60
Cc1cc(Nc2cc(C3CC3)[nH]n2)nc(NCc2cccc3[nH]ccc23)n1 ... 6.60 to 7.30
C[C@H](Nc1nccc(Nc2cc([C@H]3C[C@H]3F)[nH]n2)n1)c1ccc2[nH]cnc2c1 ... > 7.30

Query: Requested field: pKi. Item: Fc1cnc(NCc2ccc3[nH]cnc3c2Cl)nc1Nc1cc(C2CC2)[nH]n1
Reply: > 7.30

====

Let's look at some compounds and their measured Ki.
# test-system: human recombinant GST-PAK1-KD protein (Homo sapiens, UniProt Q13153)
# Construct: residues #249-545 of human PAK1, UniProtKP/Swiss Q13153; His6 (N); made in house; host or cells: Sf9 insect cells, pAcGP67 baculovirus expression vector
# experiment: GST-PAK1-KD (kinase domain) biochemical assay, microfluidic mobility shift
# condition-label: Table II, PAK1 Ki class; read-out: Ki
# Experimental: Activity of human recombinant GST-PAK1-KD protein was assessed in vitro assay by observing the phosphorylation of a fluorogenic peptide substrate. The peptide substrate is a consensus sequence based on various PAK1 substrates reported in the scientific literature. […] Incubations were carried out at 22° C. in MatriCal MP101 384-well Metriplates™. […]

Some solved entries appear below for comparison.
Cc1cc2c(CNc3nccc(Nc4cc(C5CC5)[nH]n4)n3)cccc2[nH]1 [II-15] ... < 50 nM
CN(C)CCN(Cc1cccc2[nH]ccc12)c1nccc(Nc2cc(C3CC3)[nH]n2)n1 [II-89] ... < 50 nM
CN(Cc1ccc2[nH]cnc2c1Cl)c1ncc(F)c(Nc2cc(C(C)(C)C)[nH]n2)n1 [II-42] ... 50 to 250 nM
C[C@H](Nc1nccc(Nc2cc(C3CC3)[nH]n2)n1)c1cc(F)cc2c1cnn2C [II-40] ... 50 to 250 nM

Now consider the entry below.
Query: For the compound shown here, CCN(Cc1ccc2[nH]cnc2c1Cl)c1nccc(Nc2cc([C@@H]3C[C@@H]3F)[nH]n2)n1 [II-51] , give the reported Ki.
Reply: < 50 nM

====

# test-system: human recombinant GST-PAK1-KD protein (Homo sapiens, UniProt Q13153)
# Construct: residues #249-545 of human PAK1, UniProtKP/Swiss Q13153; His6 (N); made in house; host or cells: Sf9 insect cells, pAcGP67 baculovirus expression vector
# experiment: GST-PAK1-KD (kinase domain) biochemical assay, microfluidic mobility shift
# condition-label: Table I, PAK1 Ki class; read-out: Ki
pKi: −log10 of the molar value. Where a name gives a salt, the structure may show the parent alone.
reported-property: pKi

Solved entries:
c1cc(CNc2nccc(Nc3cc(C4CCCO4)[nH]n3)n2)c2cc[nH]c2c1 (stereo not drawn) ... 6.00 to 6.60
c1cc(CNc2nccc(Nc3cc(C4CCCC4)[nH]n3)n2)c2cc[nH]c2c1 ... 6.60 to 7.30
C[C@@H](Nc1ncc(F)c(Nc2cc(C3CC3)[nH]n2)n1)c1cccc2[nH]ccc12 ... < 6.00
Fc1cc(CNc2ncc(F)c(Nc3cc(C4CCC4)[nH]n3)n2)c2cc[nH]c2c1 [I-90, formate] ... 6.00 to 6.60
C[C@H](Nc1nc(Nc2cc(C3CC3)[nH]n2)cc(C(F)(F)F)n1)c1ccc2[nH]ccc2c1 ... 6.60 to 7.30
c1cc(CNc2nccc(Nc3cc(C4CC4)[nH]n3)n2)c2nc[nH]c2c1 ... 6.60 to 7.30

Query: What pKi value was documented for this compound, F[C@@H]1C[C@H]1c1cc(Nc2ccnc(NCc3cccc4[nH]ccc34)n2)n[nH]1 (racemic) ?
Reply: > 7.30

Query: Same read-out for Fc1cc2[nH]cnc2cc1CNc1nccc(Nc2cc(C3CC3)[nH]n2)n1 ?
Reply: 6.60 to 7.30

Query: Further, for C[C@H](Nc1nccc(Nc2cc([C@H]3C[C@@H]3F)[nH]n2)n1)c1ccc2[nH]ccc2c1 ?
Reply: > 7.30

Query: Cool, now C[C@H](Nc1ncc(F)c(Nc2cc(C3CC3)[nH]n2)n1)c1cccc2[nH]ccc12
Reply: 6.60 to 7.30

Query: Request: FC1(F)C[C@H]1c1cc(Nc2ccnc(NCc3ccc4[nH]cnc4c3Cl)n2)n[nH]1
Reply: > 7.30

Query: Also C[C@H](Nc1nccc(Nc2cc(C3CCCC3)[nH]n2)n1)c1ccc2[nH]cnc2c1 ?
Reply: > 7.30

Query: Then this compound: F[C@@H]1C[C@@H]1c1cc(Nc2ccnc(NCc3cccc4[nH]ccc34)n2)n[nH]1 (racemic)
Reply: 6.60 to 7.30

Query: Please give the result for Cc1c[nH]c2cccc(CNc3nccc(Nc4cc(C5CC5)[nH]n4)n3)c12 too.
Reply: > 7.30

Query: Moving on to the next compound: CN(Cc1ccc2[nH]cnc2c1Cl)c1ncc(F)c(Nc2cc(C3CC3)[nH]n2)n1
Reply: > 7.30

====

# test-system: human recombinant GST-PAK1-KD protein (Homo sapiens)
# Construct: residues #249-545 of human PAK1, UniProtKP/Swiss Q13153; His6 (N); made in house; host or cells: Sf9 insect cells, pAcGP67 baculovirus expression vector
# experiment: GST-PAK1-KD (kinase domain) biochemical assay, microfluidic mobility shift
# condition-label: Table II, PAK1 Ki class; read-out: Ki
reported-property: Ki

Guide cases for Ki, answers given:
C[C@H](Nc1nccc(Nc2cc(C3CC3)[nH]n2)n1)c1cc2nc[nH]c2cc1Cl ... 50 to 250 nM
Cc1nc2c(CNc3ncc(F)c(Nc4cc(C5CC5)[nH]n4)n3)cc(Cl)cc2[nH]1 ... 50 to 250 nM
COc1c(CNc2nccc(Nc3cc(C4CC4)[nH]n3)n2)ccc2[nH]cnc12 ... < 50 nM

With those in mind, consider the next molecule.
Query: GET /values?readout=Ki&system=human recombinant GST-PAK1-KD protein (Homo sapiens)&item= CN(Cc1cccc2[nH]ncc12)c1ncc(F)c(Nc2cc(C3CC3)[nH]n2)n1
Reply: < 50 nM

Value source: patent US8637537B2
